What stoichiometry N was measured for each of the following?
# MEASURED_ON: the molecule itself
# TEST_METHOD_NOTES: SEC

### Prompt Let me know recorded stoichiometry N for UbaA, E1-like SAMP-activating enzyme of Haloferax volcanii, purified wild type (enzyme, UniProt D4GSF3 1-270, looked up) MTLSLDATQLDRYSRHIIMDEVGPEGQGRLLSSRVVVVGAGGLGAPAIQYLAAVGVGELVVVDDDVVERSNLQRQVVHCDDDVGTPKAESAAAFVRGLNPDVSVEPVEARVDKSNVHEVVAGSDVVVDASDNFPTRYLLNDVCRFEGIPLVHGAIYKFEGQATTLVPDGPCYRCLFPEAPEPGTVPDCATTGVLGVLPGTVGCIQATEAMKLLLDEGEALDGRLLFYDAMDMTFETVPYRTNPDCPVCGEGGVDSIEDIDYVESCAISLD , thanks.
### Response 2

### Prompt Let me know recorded stoichiometry N for UbaA K87R, purified (enzyme, Haloferax volcanii, UniProt D4GSF3 1-270, looked up) MTLSLDATQLDRYSRHIIMDEVGPEGQGRLLSSRVVVVGAGGLGAPAIQYLAAVGVGELVVVDDDVVERSNLQRQVVHCDDDVGTPRAESAAAFVRGLNPDVSVEPVEARVDKSNVHEVVAGSDVVVDASDNFPTRYLLNDVCRFEGIPLVHGAIYKFEGQATTLVPDGPCYRCLFPEAPEPGTVPDCATTGVLGVLPGTVGCIQATEAMKLLLDEGEALDGRLLFYDAMDMTFETVPYRTNPDCPVCGEGGVDSIEDIDYVESCAISLD , thanks.
### Response 2

### Prompt Let me know recorded stoichiometry N for UbaA C188A, purified (enzyme, Haloferax volcanii, UniProt D4GSF3 1-270, looked up) MTLSLDATQLDRYSRHIIMDEVGPEGQGRLLSSRVVVVGAGGLGAPAIQYLAAVGVGELVVVDDDVVERSNLQRQVVHCDDDVGTPKAESAAAFVRGLNPDVSVEPVEARVDKSNVHEVVAGSDVVVDASDNFPTRYLLNDVCRFEGIPLVHGAIYKFEGQATTLVPDGPCYRCLFPEAPEPGTVPDAATTGVLGVLPGTVGCIQATEAMKLLLDEGEALDGRLLFYDAMDMTFETVPYRTNPDCPVCGEGGVDSIEDIDYVESCAISLD , thanks.
### Response 2
